Compiled literature IC50, tested on Methionine aminopeptidase 2 (Homo sapiens, UniProt P50579).
Sequence (P50579 whole entry, species assumed): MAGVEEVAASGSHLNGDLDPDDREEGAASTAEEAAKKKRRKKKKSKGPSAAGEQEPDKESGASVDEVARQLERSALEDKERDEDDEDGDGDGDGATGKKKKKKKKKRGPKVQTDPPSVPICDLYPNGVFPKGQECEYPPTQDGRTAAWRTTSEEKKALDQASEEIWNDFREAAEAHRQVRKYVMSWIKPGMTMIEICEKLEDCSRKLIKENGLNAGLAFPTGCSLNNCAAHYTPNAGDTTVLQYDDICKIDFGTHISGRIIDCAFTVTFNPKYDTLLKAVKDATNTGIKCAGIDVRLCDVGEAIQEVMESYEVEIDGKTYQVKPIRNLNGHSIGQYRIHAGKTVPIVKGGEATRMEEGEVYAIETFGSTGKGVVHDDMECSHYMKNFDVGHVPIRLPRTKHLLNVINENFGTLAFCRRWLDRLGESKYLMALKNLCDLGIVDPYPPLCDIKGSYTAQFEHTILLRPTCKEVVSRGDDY

Take a look at these entries with their results.
>>> reading("O=C1CCc2cc(N3CC[C@](O)(C(=O)NCc4ccc(Cl)c(F)c4)C3=O)ccc2N1")
"1 to 10 µM"
>>> reading("O=C(c1cccc(N2CC[C@](O)(C(=O)NCc3cc(F)cc(Cl)c3)C2=O)c1)N1CCOCC1")
"0.01 to 1 µM"
>>> reading("O=C1CCc2cc(N3CC[C@](O)(C(=O)NCCc4ccccc4F)C3=O)ccc2N1")
"0.01 to 1 µM"
>>> reading("O=C(NCCc1cc(F)cc(Cl)c1)[C@]1(O)CCN(c2cccc(C(F)(F)F)c2)C1=O")
"1 to 10 µM"
>>> reading("O=C(O)CN1CCC(O)(C(=O)NCc2cc(F)cc(Cl)c2)C1=O (stereo not shown)")
"> 10 µM"

Give Methionine aminopeptidase 2 (Homo sapiens, UniProt P50579) IC50 for the following compound: `NCCOCCOCCNCc1ccc(OC[C@H]2CCCN2c2ncnc3[nH]cnc23)c2ccccc12`
1 to 10 µM

Give Methionine aminopeptidase 2 (Homo sapiens, UniProt P50579) IC50 for the following compound: `CN(C[C@H]1CCCN1c1ncnc2[nH]cnc12)c1cccc(F)c1`
> 10 µM

Give Methionine aminopeptidase 2 (Homo sapiens, UniProt P50579) IC50 for the following compound: `c1ccc2c(OC[C@H]3CCCN3c3ncnc4[nH]cnc34)c(CN3CCCCC3)ccc2c1`
> 10 µM

###

Compiled literature pIC50, tested on Methionine aminopeptidase 2 (Homo sapiens, UniProt P50579).
pIC50: −log10 of the molar value.

>>> reading("Cn1nccc1CN1CCC(O)(C(=O)NCc2cc(F)cc(Cl)c2)C1=O (centres unmarked)")
"5.00 to 6.00"
>>> reading("CN1CCCC1CCNC(=O)[C@@]1(O)CCN(c2ccccc2)C1=O (some centres unmarked)")
"< 5.00"
>>> reading("c1cncc(COC[C@H]2CCCN2c2ccnc3ncnn23)c1")
"5.00 to 6.00"
>>> reading("O=C(NCCc1cccs1)[C@@]1(O)CCN(c2cccc(Cl)c2)C1=O")
"6.00 to 8.00"

Give Methionine aminopeptidase 2 (Homo sapiens, UniProt P50579) pIC50 for the following compound: O=C1CCc2cc(N3CCC(O)(C(=O)NCCc4ccccc4F)C3=O)ccc2N1 (centres unmarked)
6.00 to 8.00

###

Compiled literature IC50, tested on Methionine aminopeptidase 2 (Homo sapiens).

Take a look at these entries with their results.
>>> reading("CCN(CC)C(=O)c1cc2cccc(OC[C@H]3CCCN3c3ncnc4[nH]cnc34)c2cc1O")
"0.01 to 1 µM"
>>> reading("O=C(NCc1cc(F)cc(Cl)c1)[C@@]1(O)CCCCN(c2ccccc2)C1=O")
"1 to 10 µM"
>>> reading("O[C@]1(CNCc2ccc(F)cc2)CCCN(Cc2ccccc2)C1")
"> 10 µM"
>>> reading("COC(=O)c1ccc2[nH]c(COC[C@H]3CCCN3c3ccnc4ncnn34)cc2c1")
"0.01 to 1 µM"
>>> reading("OC[C@H]1CCCN1Cc1ccc(OC[C@H]2CCCN2c2ncnc3[nH]cnc23)c2ccccc12")
"0.01 to 1 µM"

Give Methionine aminopeptidase 2 (Homo sapiens) IC50 for the following compound: `CNC(=O)c1cccc(N2CC[C@](O)(C(=O)NCc3cc(F)cc(Cl)c3)C2=O)c1`
0.01 to 1 µM

Give Methionine aminopeptidase 2 (Homo sapiens) IC50 for the following compound: `O=C(OC[C@H]1CCCN1c1ccnc2ncnn12)c1cccc(F)c1`
0.01 to 1 µM
